# STUDY SYSTEM: KPC-2 β-lactamase (Klebsiella pneumoniae)
# Construct: expressed as native untagged proteins; made in house; host or cells: E. coli BL21(DE3)
# Sequence (Q9F663 25-293 limits assumed): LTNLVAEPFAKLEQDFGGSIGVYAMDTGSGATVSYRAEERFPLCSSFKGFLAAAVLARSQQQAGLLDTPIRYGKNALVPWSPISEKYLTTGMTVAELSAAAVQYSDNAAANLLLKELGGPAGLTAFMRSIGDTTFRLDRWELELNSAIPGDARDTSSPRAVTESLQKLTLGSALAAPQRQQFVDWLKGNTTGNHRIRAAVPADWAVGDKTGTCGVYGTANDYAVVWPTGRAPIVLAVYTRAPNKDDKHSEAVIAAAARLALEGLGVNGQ
# TEST METHOD NOTES: β-lactamase enzyme inhibition assay (nitrocefin substrate), KPC-2
# Format: biochemical
Structures can show the parent of a compound that is named as a salt.
METRIC: IC50 (nM)

{"MOLECULE": "O=C(N[C@@H](Cc1cccc(C(=O)O)c1O)B(O)O)c1cccc(CN2CCNCC2)c1", "VALUE REPORTED": 9}
{"MOLECULE": "N=C(N)NCc1ccc(CC(=O)N[C@@H](Cc2cccc(C(=O)O)c2O)B(O)O)cc1 [Example 61, formate salt]", "VALUE REPORTED": 14}
{"MOLECULE": "CC(C)(O/N=C(\\C(=O)N[C@@H](Cc1cccc(C(=O)O)c1O)B(O)O)c1csc(NC(=O)CN)n1)C(=O)O.Cl [Example 50, hydrochloride]", "VALUE REPORTED": 158}
{"MOLECULE": "C[N+]1(Cc2ccc(CC(=O)N[C@@H](Cc3cccc(C(=O)O)c3O)B(O)O)cc2)CCOCC1 [Example 41, formate]", "VALUE REPORTED": 10}
{"MOLECULE": "CO/N=C(\\C(=O)N[C@@H](Cc1cccc(C(=O)O)c1O)B(O)O)c1csc(NC(=O)[C@@H](N)CCCCN)n1 [Example 52, hydrochloride]", "VALUE REPORTED": 89}
{"MOLECULE": "O=C(N[C@@H](Cc1cccc(C(=O)O)c1O)B(O)O)c1cccc(CNc2nccs2)c1", "VALUE REPORTED": 3}
{"MOLECULE": "CNCc1cccc(C(=O)N[C@@H](Cc2cccc(C(=O)O)c2O)B(O)O)c1", "VALUE REPORTED": 19}

---

# STUDY SYSTEM: KPC-2 β-lactamase (Klebsiella pneumoniae)
# Construct: expressed as native untagged proteins; made in house; host or cells: E. coli BL21(DE3)
# TEST METHOD NOTES: β-lactamase enzyme inhibition assay (nitrocefin substrate), KPC-2
# Format: biochemical
pIC50: −log10 of the molar value.

{"SMILES INPUT": "CN(C)Cc1cccc(C(=O)N[C@@H](Cc2cccc(C(=O)O)c2O)B(O)O)c1", "STUDY SYSTEM": "KPC-2 β-lactamase (Klebsiella pneumoniae)", "pIC50": 7.85}
{"SMILES INPUT": "CC(=O)N(CCN)Cc1cccc(C(=O)N[C@@H](Cc2cccc(C(=O)O)c2O)B(O)O)c1", "STUDY SYSTEM": "KPC-2 β-lactamase (Klebsiella pneumoniae)", "pIC50": 7.74}
{"SMILES INPUT": "NCc1ccc(CC(=O)N[C@@H](Cc2cccc(C(=O)O)c2O)B(O)O)cc1", "STUDY SYSTEM": "KPC-2 β-lactamase (Klebsiella pneumoniae)", "pIC50": 8.05}

---

The following compounds are shown together with reported pIC50 values.
# STUDY SYSTEM: SHV-5 β-lactamase (Klebsiella pneumoniae, UniProt P0A3M1)
# Construct: expressed as native untagged proteins; made in house; host or cells: E. coli BL21(DE3)
# Sequence (P0A3M1 22-286): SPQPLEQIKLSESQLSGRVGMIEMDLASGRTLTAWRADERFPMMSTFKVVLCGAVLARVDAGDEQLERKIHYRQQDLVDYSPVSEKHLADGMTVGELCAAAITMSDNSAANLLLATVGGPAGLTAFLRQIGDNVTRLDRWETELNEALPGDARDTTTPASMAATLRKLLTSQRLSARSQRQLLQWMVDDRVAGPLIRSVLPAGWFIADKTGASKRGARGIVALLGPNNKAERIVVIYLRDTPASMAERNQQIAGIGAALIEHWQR
# TEST METHOD NOTES: β-lactamase enzyme inhibition assay (nitrocefin substrate), SHV-5
# Format: biochemical
pIC50: −log10 of the molar value.

{"COMPOUND": "O=C(N[C@@H](Cc1cccc(C(=O)O)c1O)B(O)O)c1cccc(CN2CCNCC2)c1 [Example 20]", "REPORTED RELATION": "=", "pIC50": 7.38}
{"COMPOUND": "Br.CC(C)(O/N=C(\\C(=O)N[C@@H](Cc1cccc(C(=O)O)c1O)B(O)O)c1csc(N)n1)C(=O)O [Example 48, hydrobromide]", "REPORTED RELATION": "=", "pIC50": 8.40}
{"COMPOUND": "Cl.Nc1ccc(C(=O)N[C@@H](Cc2cccc(C(=O)O)c2O)B(O)O)cn1 [Example 7, formate salt]", "REPORTED RELATION": "=", "pIC50": 6.49}
{"COMPOUND": "O=C(O)CNCc1ccc(CC(=O)N[C@@H](Cc2cccc(C(=O)O)c2O)B(O)O)cc1 [Example 58]", "REPORTED RELATION": "=", "pIC50": 9.30}
{"COMPOUND": "CNCc1ccc(C(=O)N[C@@H](Cc2cccc(C(=O)O)c2O)B(O)O)cc1.Cl [Example 11, hydrochloride]", "REPORTED RELATION": "<", "pIC50": 6.00}
{"COMPOUND": "N=C(N)NCCC[C@H](NCc1ccc(CC(=O)N[C@@H](Cc2cccc(C(=O)O)c2O)B(O)O)cc1)C(=O)O [Example 59]", "REPORTED RELATION": "=", "pIC50": 8.70}
{"COMPOUND": "O=C(N[C@@H](Cc1cccc(C(=O)O)c1O)B(O)O)c1cccc(CN(CCO)CCO)c1 [Example 23]", "REPORTED RELATION": "=", "pIC50": 7.77}

---

# System: K. pneumoniae expressing the Class A carbapenemase KPC-2
# TEST METHOD NOTES: microbe, parasite or virus in culture
# Type: cell-based
# CONDITIONS USED: in presence of Ceftazidime 8 μg/ml (Examples 1-56)
METRIC: MIC of example compound, K. pneumoniae KPC-2 (µg/mL)

{"SMILES INPUT": "Cl.O=C(N[C@@H](Cc1cccc(C(=O)O)c1O)B(O)O)c1ccc(N2CCNCC2)nc1", "REPORTED RELATION": "<", "VALUE REPORTED": 0.01}
{"SMILES INPUT": "O=C(Cc1ccc(CN2CCNCC2)cc1)N[C@@H](Cc1cccc(C(=O)O)c1O)B(O)O", "REPORTED RELATION": "=", "VALUE REPORTED": 0.03}
{"SMILES INPUT": "O=C(Cc1ccc(CN2CCCC2)cc1)N[C@@H](Cc1cccc(C(=O)O)c1O)B(O)O", "REPORTED RELATION": "=", "VALUE REPORTED": 0.03}
{"SMILES INPUT": "CN(C)Cc1ccc(CC(=O)N[C@@H](Cc2cccc(C(=O)O)c2O)B(O)O)cc1", "REPORTED RELATION": "=", "VALUE REPORTED": 0.06}
{"SMILES INPUT": "CO/N=C(\\C(=O)N[C@@H](Cc1cccc(C(=O)O)c1O)B(O)O)c1csc(NC(=O)CN)n1.Cl", "REPORTED RELATION": ">", "VALUE REPORTED": 8}
{"SMILES INPUT": "O=C(N[C@@H](Cc1cccc(C(=O)O)c1O)B(O)O)c1cccc(CN2CCNCC2)c1", "REPORTED RELATION": "=", "VALUE REPORTED": 0.03}
{"SMILES INPUT": "Cl.NCCNCc1ccc(C(=O)N[C@@H](Cc2cccc(C(=O)O)c2O)B(O)O)cc1", "REPORTED RELATION": "=", "VALUE REPORTED": 0.01}
{"SMILES INPUT": "CC/C(=N/O)C(=O)N[C@@H](Cc1cccc(C(=O)O)c1O)B(O)O", "REPORTED RELATION": "=", "VALUE REPORTED": 0.06}

---

# STUDY SYSTEM: OXA-23 β-lactamase (Acinetobacter baumannii)
# Construct: crude β-lactamase extracts were prepared from 20 ml overnight cultures; endogenous in cells; host or cells: Acinetobacter baumannii cells containing OXA-23 (crude freeze-thaw extract)
# Sequence (Q9L4P2 18-273): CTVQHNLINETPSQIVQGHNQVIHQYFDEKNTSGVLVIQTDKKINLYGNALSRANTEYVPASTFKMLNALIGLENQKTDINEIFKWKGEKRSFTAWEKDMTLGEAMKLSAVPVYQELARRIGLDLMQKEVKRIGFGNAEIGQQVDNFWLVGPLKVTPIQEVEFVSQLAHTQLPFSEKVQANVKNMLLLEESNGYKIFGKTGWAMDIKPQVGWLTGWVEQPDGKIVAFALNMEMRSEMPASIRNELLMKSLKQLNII
# TEST METHOD NOTES: β-lactamase enzyme inhibition assay (nitrocefin substrate), OXA-23 crude extract
# Assay type: biochemical
# CONDITIONS USED: nitrocefin 100 μM, 37° C., PBS pH 7.0; read-out: OXA-23 IC50
pIC50: −log10 of the molar value. Counter-ions that a name gives are not always drawn.
The following compounds are shown together with reported pIC50 values.

{"COMPOUND": "Cl.Nc1ccc(C(=O)N[C@@H](Cc2cccc(C(=O)O)c2O)B(O)O)cn1 [Example 7, formate salt]", "STUDY SYSTEM": "OXA-23 β-lactamase (Acinetobacter baumannii)", "pIC50": 6.29}
{"COMPOUND": "O=C(N[C@@H](Cc1cccc(C(=O)O)c1O)B(O)O)c1cccc(CNCc2cccnc2)c1 [Example 19]", "STUDY SYSTEM": "OXA-23 β-lactamase (Acinetobacter baumannii)", "pIC50": 7.72}
{"COMPOUND": "CCC(=O)C(=O)N[C@@H](Cc1cccc(C(=O)O)c1O)B(O)O [Example 56]", "STUDY SYSTEM": "OXA-23 β-lactamase (Acinetobacter baumannii)", "pIC50": 7.51}
{"COMPOUND": "Nc1cccc[n+]1Cc1ccc(CC(=O)N[C@@H](Cc2cccc(C(=O)O)c2O)B(O)O)cc1 [Example 40]", "STUDY SYSTEM": "OXA-23 β-lactamase (Acinetobacter baumannii)", "pIC50": 6.88}
{"COMPOUND": "CN(C)Cc1ccc(CC(=O)N[C@@H](Cc2cccc(C(=O)O)c2O)B(O)O)cc1 [Example 36]", "STUDY SYSTEM": "OXA-23 β-lactamase (Acinetobacter baumannii)", "pIC50": 6.72}
{"COMPOUND": "CN(C)Cc1ccc(C(=O)N[C@@H](Cc2cccc(C(=O)O)c2O)B(O)O)cc1 [Example 4, formate salt]", "STUDY SYSTEM": "OXA-23 β-lactamase (Acinetobacter baumannii)", "pIC50": 7.00}
{"COMPOUND": "NCc1ccc(/C(=N/O)C(=O)N[C@@H](Cc2cccc(C(=O)O)c2O)B(O)O)cc1 [Example 53, hydrochloride]", "STUDY SYSTEM": "OXA-23 β-lactamase (Acinetobacter baumannii)", "pIC50": 6.46}
{"COMPOUND": "NCCNCc1cccc(C(=O)N[C@@H](Cc2cccc(C(=O)O)c2O)B(O)O)c1 [Example 18]", "STUDY SYSTEM": "OXA-23 β-lactamase (Acinetobacter baumannii)", "pIC50": 7.39}
